Assay: Antiproliferative activity against human JMAR cells after 72 hrs by MTS/PMS assay
Format: functional, cell-based
OBSERVATION_TYPE: log10 of IC50 (log10 of the value in µM)
Hello, just confirming the data are log10 of IC50 with units of µM.

Past entries and their recorded results:
COc1cccc(-c2cc(C(=O)Nc3cc4ccc(OC5CCCN(C(C)=O)C5)c(C)c4oc3=O)ccc2OC)c1 (stereo unspecified) : 1.18
COc1cc2cc(NC(=O)c3cc4ccccc4[nH]3)c(=O)oc2c(C)c1OC1CCN(C)CC1 : 0.09
COc1cccc(-c2cc(C(=O)Nc3cc4ccc(O[C@@H]5O[C@H](CO)C[C@@H](O)[C@H]5O)c(C)c4oc3=O)ccc2OC)c1 : 0.76
COc1cccc(-c2cc(C(=O)Nc3cc4ccc(OC5C=CCC(C)C5)c(C)c4oc3=O)ccc2OC)c1 (stereo unspecified) : 1.40

Give the reported value of log10 of IC50 for this record: COc1cccc(-c2cc(C(=O)Nc3cc4ccc(OC5CCCN(C)C5)c(C)c4oc3=O)ccc2OC)c1 (stereo unspecified)
1.10

Report log10 of IC50, nothing else, for this molecule: COc1cccc(-c2cc(C(=O)Nc3cc4cc(OC)c(OC5CCN(C)CC5)c(C)c4oc3=O)ccc2OC)c1
0.26

Entry COc1cccc(-c2cc(C(=O)Nc3cc4cc(OC)c(OC5CCCN(C(C)=O)C5)c(C)c4oc3=O)ccc2OC)c1 (stereo unspecified) needs its log10 of IC50 filled in; supply it.
1.52
